- target-system: EPHB2 (UniProt P29323)
- Sequence (P29323 whole entry, looked up): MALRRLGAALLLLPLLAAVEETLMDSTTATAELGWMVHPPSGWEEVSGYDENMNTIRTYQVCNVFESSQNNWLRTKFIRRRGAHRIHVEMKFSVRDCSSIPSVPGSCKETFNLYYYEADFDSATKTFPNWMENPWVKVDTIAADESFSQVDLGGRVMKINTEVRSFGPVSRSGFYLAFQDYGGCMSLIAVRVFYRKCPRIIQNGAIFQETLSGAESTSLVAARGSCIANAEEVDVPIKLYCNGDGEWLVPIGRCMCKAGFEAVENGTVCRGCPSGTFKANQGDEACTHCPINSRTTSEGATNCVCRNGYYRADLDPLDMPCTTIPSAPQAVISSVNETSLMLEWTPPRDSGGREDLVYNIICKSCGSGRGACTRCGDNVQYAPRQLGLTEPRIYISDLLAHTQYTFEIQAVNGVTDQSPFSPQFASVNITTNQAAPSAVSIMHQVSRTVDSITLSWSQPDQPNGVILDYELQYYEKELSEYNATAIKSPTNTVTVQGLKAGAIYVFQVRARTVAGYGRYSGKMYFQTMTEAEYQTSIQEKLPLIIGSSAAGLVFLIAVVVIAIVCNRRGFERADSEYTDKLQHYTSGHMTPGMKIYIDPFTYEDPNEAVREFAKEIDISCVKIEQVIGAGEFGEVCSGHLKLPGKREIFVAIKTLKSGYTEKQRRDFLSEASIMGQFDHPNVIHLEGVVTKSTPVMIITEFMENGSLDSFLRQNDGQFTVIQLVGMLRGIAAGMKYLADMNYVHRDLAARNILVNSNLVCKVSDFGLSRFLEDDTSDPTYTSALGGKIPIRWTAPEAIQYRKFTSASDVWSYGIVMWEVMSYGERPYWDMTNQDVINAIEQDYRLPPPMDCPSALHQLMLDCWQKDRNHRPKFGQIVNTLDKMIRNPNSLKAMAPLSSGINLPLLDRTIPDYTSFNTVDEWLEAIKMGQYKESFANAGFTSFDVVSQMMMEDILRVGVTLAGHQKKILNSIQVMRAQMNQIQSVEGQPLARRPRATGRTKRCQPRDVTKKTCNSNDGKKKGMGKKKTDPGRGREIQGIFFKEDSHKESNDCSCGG
- method-description: phosphorylation enrichment, bacterial display (enrichment ratio); higher = better substrate or ligand; peptides without Tyr show the background;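 also: 11-residue human phosphosite peptides and single-mutation variants displayed on the E. coli surface, counted by deep sequencing, each peptide's frequency after selection divided by its frequency in the unselected input library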;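 also: frequency after pTyr selection over input frequency; kinase dosed for 20-30% of maximal phosphorylation in three min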
Provide the reported phosphorylation enrichment of each item.
Respond numerically, and do not add a unit to the figure.

In: phosphorylation enrichment lookup needed for AFLEDYFTSTE [SRC_Y522] , thanks.
Out: 0.606

In: Entry VGGRIYTDDGL [PKLR_Y218_I219T] : reported phosphorylation enrichment = ?
Out: 0.592

In: Would you mind telling me what phosphorylation enrichment value was observed for VEDPEYAVTQP [STOML2_Y124_L129P] ?
Out: 0.602

In: Could you tell me which phosphorylation enrichment is on file for DENWFYTRAAF [RPS19_Y54_S59F] ?
Out: 0.594

* * *

Exercise: state measured phosphorylation enrichment for each of the sequences provided.
- target-system: Fyn (UniProt P06241)
- Sequence (P06241 whole entry, looked up): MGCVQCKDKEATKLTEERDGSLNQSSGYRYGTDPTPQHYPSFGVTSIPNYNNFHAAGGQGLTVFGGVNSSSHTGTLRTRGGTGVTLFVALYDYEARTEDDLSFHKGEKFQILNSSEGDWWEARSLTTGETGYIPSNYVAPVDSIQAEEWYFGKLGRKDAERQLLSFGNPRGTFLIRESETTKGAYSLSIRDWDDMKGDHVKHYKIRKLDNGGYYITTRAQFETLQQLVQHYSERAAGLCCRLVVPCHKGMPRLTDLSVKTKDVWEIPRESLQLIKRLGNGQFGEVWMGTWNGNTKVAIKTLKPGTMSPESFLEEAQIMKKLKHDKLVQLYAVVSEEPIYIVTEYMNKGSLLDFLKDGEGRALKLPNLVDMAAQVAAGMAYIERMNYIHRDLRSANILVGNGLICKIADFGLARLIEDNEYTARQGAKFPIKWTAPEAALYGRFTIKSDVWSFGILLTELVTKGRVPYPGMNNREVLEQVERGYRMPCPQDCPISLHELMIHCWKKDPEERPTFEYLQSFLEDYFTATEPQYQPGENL
- method-description: phosphorylation enrichment, bacterial display (enrichment ratio); higher = better substrate or ligand; peptides without Tyr show the background

In: Fill blank: measured phosphorylation enrichment of the sequence RHSGSYLVTSV [APC_Y2838] is ____.
Out: 0.431

In: Field request: phosphorylation enrichment | item: RENGPYYTSYP [GDAP2_Y487]
Out: 2.55

In: Any idea what phosphorylation enrichment was measured for ANARMYGVLPW [PLP1_Y207_D203N] ?
Out: 4.99

In: What value of phosphorylation enrichment has been recorded for this entry: PVQAAYQNVVA [HBB_Y131_K133N]
Out: 0.644

In: Reported phosphorylation enrichment for NPQKSCFIRLF [WAS_Y83_Y83C_YF] : what is it?
Out: 0.459

In: For the sequence shown here, TLCLCYKETEE [ATP8B1_Y658_I661T] , give the reported phosphorylation enrichment.
Out: 0.708

In: Record request: phosphorylation enrichment value, item IGRWVYPLTPE [EIF2B5_Y319_R315G]
Out: 0.49

In: For the sequence shown here, DSILVYQRKEQ [USH2A_Y1909_G1911R] , give the reported phosphorylation enrichment.
Out: 0.506

In: Any idea what its phosphorylation enrichment is? The sequence is CEHRGHLFLAI [TEK_Y897_Y897H_YF]
Out: 0.516

In: So what's the measured phosphorylation enrichment for this one? FISLIYTNFEV [GSTP1_Y109_A114V_YF]
Out: 3.99

In: Reported phosphorylation enrichment for DVFVSYDFGKS [SORL1_Y139_YF] : what is it?
Out: 0.383

In: Reported phosphorylation enrichment, sequence PDMHSYMVRYN [GRIN2D_Y732] : ____
Out: 0.64

In: Find the recorded phosphorylation enrichment belonging to TYVKSYTIHYS [F5_Y2153_M2148T] and report it.
Out: 0.508

In: Quick one: phosphorylation enrichment for EKAEVYRSENE [RIOK2_Y348_G349R] ?
Out: 0.448

In: Find the recorded phosphorylation enrichment belonging to QMQLKYSQSDL [SMC1A_Y714_R711Q] and report it.
Out: 0.654

In: Returns the measured phosphorylation enrichment for the input sequence. Input: KDGIGYISAAE [CALM2_Y100_N98I]
Out: 0.466

In: Name the reported phosphorylation enrichment value associated with the sequence CQAHGYFCQPI [STK11_Y156_L160P]
Out: 0.329

In: Field request: phosphorylation enrichment | item: SVTCTYSPTLN [TP53_Y126_A129T]
Out: 0.566
